test: Cytotoxicity, MTT assay
Assay type: cell-based, mouse
testParameters: mouse, L929 mouse fibroblast cells (NCTC clone 929); L929, 24 h, at the MBC; read-out: cell viability
Ends that are not written are not given here.
measureName: viability at 24 h (%)
Your answer is read as %, so omit the unit and give the number.

What value of viability at 24 h has been recorded for this entry: KWKLFKKIGKVLKKL-NH2 [CM-10K14K, KWKLFKKIGKVLKKL-NH2]
92.9

* * *

Test system: human red blood cells (hRBCs)
test: Hemolytic activity
Type: cell-based
testParameters: 1 h at 37 °C, relative to Triton-X control
Ends that are not written are not given here.
Can you tell me HC50, concentration of peptide that causes 50% hemolysis for the items I'm about to list?
Your answer is read as µg/mL, so omit the unit and give the number.

Recorded HC50, concentration of peptide that causes 50% hemolysis for KWKLFKKIGAVLKVLA-NH2 [CM-A, KWKLFKKIGAVLKVLA-NH2] with human red blood cells (hRBCs), please?
42.58

Recorded HC50, concentration of peptide that causes 50% hemolysis for VWKLFKKIGKVLKKL-NH2 [CM-1V10K14K, VWKLFKKIGKVLKKL-NH2] with human red blood cells (hRBCs), please?
118.90

Recorded HC50, concentration of peptide that causes 50% hemolysis for VWKLFKKIGAVLKKL-NH2 [CM-1V14K, VWKLFKKIGAVLKKL-NH2] with human red blood cells (hRBCs), please?
131.70

Recorded HC50, concentration of peptide that causes 50% hemolysis for H-KWKLFKKIGAVLKVL-NH2 [C(1–7)M(2–9), KWKLFKKIGAVLKVL-NH2, reference compound] with human red blood cells (hRBCs), please?
88.89

Recorded HC50, concentration of peptide that causes 50% hemolysis for KWKLFKKIGKVLKKL-NH2 [CM-10K14K, KWKLFKKIGKVLKKL-NH2] with human red blood cells (hRBCs), please?
561.90

Recorded HC50, concentration of peptide that causes 50% hemolysis for KWKLFKKIGKVLKVL-NH2 [CM-10K, KWKLFKKIGKVLKVL-NH2] with human red blood cells (hRBCs), please?
85.78

* * *

Test system: S. epidermidis ATCC 35984 (biofilm-producer)
test: microbe, parasite or virus in culture
Assay type: cell-based, Staphylococcus epidermidis
testParameters: colony count from non-turbid MIC wells
Ends that are not written are not given here.
Can you tell me MBC, minimum bactericidal concentration for the items I'm about to list?
Your answer is read as µg/mL, so omit the unit and give the number.

What value of MBC, minimum bactericidal concentration has been recorded for this entry: KWKLFKKIGAVLKVLA-NH2 [CM-A, KWKLFKKIGAVLKVLA-NH2]
15.63

What value of MBC, minimum bactericidal concentration has been recorded for this entry: VWKLFKKIGAVLKKL-NH2 [CM-1V14K, VWKLFKKIGAVLKKL-NH2]
15.63

What value of MBC, minimum bactericidal concentration has been recorded for this entry: VWKLFKKIGKVLKKL-NH2 [CM-1V10K14K, VWKLFKKIGKVLKKL-NH2]
15.63

What value of MBC, minimum bactericidal concentration has been recorded for this entry: KWKLFKKIGKVLKVL-NH2 [CM-10K, KWKLFKKIGKVLKVL-NH2]
7.81

What value of MBC, minimum bactericidal concentration has been recorded for this entry: H-KWKLFKKIGAVLKVL-NH2 [C(1–7)M(2–9), KWKLFKKIGAVLKVL-NH2, reference compound]
7.81

What value of MBC, minimum bactericidal concentration has been recorded for this entry: KWKLFKKIGKVLKKL-NH2 [CM-10K14K, KWKLFKKIGKVLKKL-NH2]
7.81
